assay: Cell viability of 1321N1 cells (EZ4U); assay type: cell-based; conditions: human, 1321N1 cells (astrocytoma), 1 mM HTB, 0 hours, read-out: Percentage of cell viability
Assay Readout: viability at 0 h, 1 mM

# get_value(readout='viability at 0 h, 1 mM', item= O=C(O)c1ccc(C(F)(F)F)cc1O [HTB, 2-hydroxy-4-trifluoromethylbenzoic acid] ) 100%

* * *

test: Cell viability of Jurkat cells (EZ4U); format: cell-based; conditions: human, Jurkat cells (acute T cell leukemia), 3 mM HTB, 2 hours, read-out: Percentage of cell viability
Assay Readout: viability at 2 h, 3 mM
I'd appreciate it if you included the unit after the number.

# get_value(readout='viability at 2 h, 3 mM', item= O=C(O)c1ccc(C(F)(F)F)cc1O [HTB, 2-hydroxy-4-trifluoromethylbenzoic acid] ) 100%

* * *

assay: Cell viability of COLO 205 cells (EZ4U); assay type: cell-based; settings: human, COLO 205 cells (colon adenocarcinoma), 1 mM HTB, 48 hours, read-out: Percentage of cell viability
Assay Readout: viability at 48 h, 1 mM (%)
Numbers only here, please. The scale is %.

# get_value(readout='viability at 48 h, 1 mM', item= O=C(O)c1ccc(C(F)(F)F)cc1O [HTB, 2-hydroxy-4-trifluoromethylbenzoic acid] ) 37.4

* * *

test: Cell viability of U-937 cells (EZ4U); assay type: cell-based; conditions: human, U-937 histiocytic lymphoma cells, 1 mM HTB, 0 hours, read-out: Percentage of cell viability
Assay Readout: viability at 0 h, 1 mM (%)
Numbers only here, please. The scale is %.

# get_value(readout='viability at 0 h, 1 mM', item= O=C(O)c1ccc(C(F)(F)F)cc1O [HTB, 2-hydroxy-4-trifluoromethylbenzoic acid] ) 100

* * *

assay: Cell viability of 1321N1 cells (EZ4U); assay type: cell-based; conditions: human, 1321N1 cells (astrocytoma), 1 mM HTB, 24 hours, read-out: Percentage of cell viability
Assay Readout: viability at 24 h, 1 mM (%)
Numbers only here, please. The scale is %.

# get_value(readout='viability at 24 h, 1 mM', item= O=C(O)c1ccc(C(F)(F)F)cc1O [HTB, 2-hydroxy-4-trifluoromethylbenzoic acid] ) 87.5

* * *

test: Cell viability of Jurkat cells (EZ4U); assay type: cell-based; settings: human, Jurkat cells (acute T cell leukemia), 1 mM HTB, 24 hours, read-out: Percentage of cell viability
Assay Readout: viability at 24 h, 1 mM (%)
Numbers only here, please. The scale is %.

# get_value(readout='viability at 24 h, 1 mM', item= O=C(O)c1ccc(C(F)(F)F)cc1O [HTB, 2-hydroxy-4-trifluoromethylbenzoic acid] ) 11.3

* * *

test: Cell viability of U-937 cells (EZ4U); assay type: cell-based; details: human, U-937 histiocytic lymphoma cells, 1 mM HTB, 48 hours, read-out: Percentage of cell viability
Assay Readout: viability at 48 h, 1 mM (%)
Numbers only here, please. The scale is %.

# get_value(readout='viability at 48 h, 1 mM', item= O=C(O)c1ccc(C(F)(F)F)cc1O [HTB, 2-hydroxy-4-trifluoromethylbenzoic acid] ) 39.6

* * *

assay: Cell viability of 1321N1 cells (EZ4U); assay type: cell-based; settings: human, 1321N1 cells (astrocytoma), 1 mM HTB, 2 hours, read-out: Percentage of cell viability
Assay Readout: viability at 2 h, 1 mM (%)
Numbers only here, please. The scale is %.

# get_value(readout='viability at 2 h, 1 mM', item= O=C(O)c1ccc(C(F)(F)F)cc1O [HTB, 2-hydroxy-4-trifluoromethylbenzoic acid] ) 99.7

* * *

assay: Cell viability of 1321N1 cells (EZ4U); format: cell-based; conditions: human, 1321N1 cells (astrocytoma), 3 mM HTB, 2 hours, read-out: Percentage of cell viability
Assay Readout: viability at 2 h, 3 mM (%)
Numbers only here, please. The scale is %.

# get_value(readout='viability at 2 h, 3 mM', item= O=C(O)c1ccc(C(F)(F)F)cc1O [HTB, 2-hydroxy-4-trifluoromethylbenzoic acid] ) 85.3

* * *

experiment: Cell viability of U-937 cells (EZ4U); assay type: cell-based; conditions: human, U-937 histiocytic lymphoma cells, 1 mM HTB, 5 hours, read-out: Percentage of cell viability
Assay Readout: viability at 5 h, 1 mM (%)
Numbers only here, please. The scale is %.

# get_value(readout='viability at 5 h, 1 mM', item= O=C(O)c1ccc(C(F)(F)F)cc1O [HTB, 2-hydroxy-4-trifluoromethylbenzoic acid] ) 98.8

* * *

experiment: Cell viability of 143.98.2 cells (EZ4U); format: cell-based; details: human, 143.98.2 osteosarcoma cells, 3 mM HTB, 5 hours, read-out: Percentage of cell viability
Assay Readout: viability at 5 h, 3 mM
I'd appreciate it if you included the unit after the number.

# get_value(readout='viability at 5 h, 3 mM', item= O=C(O)c1ccc(C(F)(F)F)cc1O [HTB, 2-hydroxy-4-trifluoromethylbenzoic acid] ) 82.7%

* * *

experiment: Cell viability of 143.98.2 cells (EZ4U); type: cell-based; conditions: human, 143.98.2 osteosarcoma cells, 3 mM HTB, 48 hours, read-out: Percentage of cell viability
Assay Readout: viability at 48 h, 3 mM (%)
Numbers only here, please. The scale is %.

# get_value(readout='viability at 48 h, 3 mM', item= O=C(O)c1ccc(C(F)(F)F)cc1O [HTB, 2-hydroxy-4-trifluoromethylbenzoic acid] ) 16.1

* * *

assay: Cell viability of COLO 205 cells (EZ4U); format: cell-based; details: human, COLO 205 cells (colon adenocarcinoma), 1 mM HTB, 5 hours, read-out: Percentage of cell viability
Assay Readout: viability at 5 h, 1 mM (%)
Numbers only here, please. The scale is %.

# get_value(readout='viability at 5 h, 1 mM', item= O=C(O)c1ccc(C(F)(F)F)cc1O [HTB, 2-hydroxy-4-trifluoromethylbenzoic acid] ) 87.2

* * *

assay: Cell viability of U-937 cells (EZ4U); type: cell-based; settings: human, U-937 histiocytic lymphoma cells, 3 mM HTB, 5 hours, read-out: Percentage of cell viability
Assay Readout: viability at 5 h, 3 mM (%)
Numbers only here, please. The scale is %.

# get_value(readout='viability at 5 h, 3 mM', item= O=C(O)c1ccc(C(F)(F)F)cc1O [HTB, 2-hydroxy-4-trifluoromethylbenzoic acid] ) 92.6

* * *

test: Cell viability of U-937 cells (EZ4U); format: cell-based; settings: human, U-937 histiocytic lymphoma cells, 3 mM HTB, 2 hours, read-out: Percentage of cell viability
Assay Readout: viability at 2 h, 3 mM

# get_value(readout='viability at 2 h, 3 mM', item= O=C(O)c1ccc(C(F)(F)F)cc1O [HTB, 2-hydroxy-4-trifluoromethylbenzoic acid] ) 96.1%

* * *

assay: Cell viability of Jurkat cells (EZ4U); format: cell-based; details: human, Jurkat cells (acute T cell leukemia), 1 mM HTB, 48 hours, read-out: Percentage of cell viability
Assay Readout: viability at 48 h, 1 mM (%)
Numbers only here, please. The scale is %.

# get_value(readout='viability at 48 h, 1 mM', item= O=C(O)c1ccc(C(F)(F)F)cc1O [HTB, 2-hydroxy-4-trifluoromethylbenzoic acid] ) 3.6

* * *

assay: Cell viability of U-937 cells (EZ4U); assay type: cell-based; details: human, U-937 histiocytic lymphoma cells, 3 mM HTB, 24 hours, read-out: Percentage of cell viability
Assay Readout: viability at 24 h, 3 mM (%)
Numbers only here, please. The scale is %.

# get_value(readout='viability at 24 h, 3 mM', item= O=C(O)c1ccc(C(F)(F)F)cc1O [HTB, 2-hydroxy-4-trifluoromethylbenzoic acid] ) 13.9

* * *

assay: Cell viability of 143.98.2 cells (EZ4U); assay type: cell-based; details: human, 143.98.2 cells (osteosarcoma), 1 mM HTB, 2 hours, read-out: Percentage of cell viability
Assay Readout: viability at 2 h, 1 mM (%)
Numbers only here, please. The scale is %.

# get_value(readout='viability at 2 h, 1 mM', item= O=C(O)c1ccc(C(F)(F)F)cc1O [HTB, 2-hydroxy-4-trifluoromethylbenzoic acid] ) 100
